Biological target: T1, human ROR1 'Ig-Frizzled domain' (human, UniProt Q01973)
T1 construct: used plain or biotinylated
T1 sequence (Q01973 30-305 limits assumed): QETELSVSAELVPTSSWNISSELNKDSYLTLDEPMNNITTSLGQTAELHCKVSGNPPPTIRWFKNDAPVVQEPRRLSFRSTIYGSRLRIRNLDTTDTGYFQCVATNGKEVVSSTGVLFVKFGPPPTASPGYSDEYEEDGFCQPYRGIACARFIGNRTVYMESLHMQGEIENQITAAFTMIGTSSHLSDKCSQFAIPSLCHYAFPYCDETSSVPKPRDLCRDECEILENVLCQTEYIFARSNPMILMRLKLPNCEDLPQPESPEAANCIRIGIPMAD
Assay: ELISA, direct coat; BCC supernatant
I'd appreciate it if you could supply ELISA OD450 values for the items below.
Your answer is read as OD450, so omit the unit and give the number.

Incoming: Any idea what its ELISA OD450 is? The binder is 323D10 (antibody, V domains shown, chimeric counterpart m5; also called rabbit IgG of BCC well 323D10) VH: QSVEESGGRLVTPGTPLTLTCTVSGFSLSRNAMNWVRQAPGKGLEYIGYISTSGTTFYANWVKGRFTISKTSTTVDLKMTSLTTEDTATYFCARDYNYAMDIWGQGTLVTVSS VL: AIDLTQTPASVEAAVGGTITINCQASESISSWLAWYQQKPGQRPKLLIYETSKLASGVPPRFSGSGSGTQFTLTISGVQCDDAATYYCQSYYRINNIGYDNAFGGGTEVEFK
Outgoing: 1.94

Incoming: Same question for 323H7 (antibody, V domains shown, chimeric counterpart m3; also called rabbit IgG of BCC well 323H7) VH: QEQLKESGGGLVTPGGTLTLTCTASGFTISRYHMTWVRQAPGKGLEWIGHIYVNNDDTDYASWAKGRFTISKTSTTVDLKITSPTTEDTATYFCARLDVGGGGAYIGDIWGQGTLVTVSS VL: QAVVTQTPSSVSAAVGGTVTISCQSSQSVYNNNDLAWYQQKPGQPPKLLIYYASTLASGVSSRFKGSGSGTQFTLAISDLECDDSATYYCAGGYDTDGLDTFAFGGGTEVEVK please.
Outgoing: 1.67
